- target: UniProt:P08922
- Sequence (P08922 whole entry): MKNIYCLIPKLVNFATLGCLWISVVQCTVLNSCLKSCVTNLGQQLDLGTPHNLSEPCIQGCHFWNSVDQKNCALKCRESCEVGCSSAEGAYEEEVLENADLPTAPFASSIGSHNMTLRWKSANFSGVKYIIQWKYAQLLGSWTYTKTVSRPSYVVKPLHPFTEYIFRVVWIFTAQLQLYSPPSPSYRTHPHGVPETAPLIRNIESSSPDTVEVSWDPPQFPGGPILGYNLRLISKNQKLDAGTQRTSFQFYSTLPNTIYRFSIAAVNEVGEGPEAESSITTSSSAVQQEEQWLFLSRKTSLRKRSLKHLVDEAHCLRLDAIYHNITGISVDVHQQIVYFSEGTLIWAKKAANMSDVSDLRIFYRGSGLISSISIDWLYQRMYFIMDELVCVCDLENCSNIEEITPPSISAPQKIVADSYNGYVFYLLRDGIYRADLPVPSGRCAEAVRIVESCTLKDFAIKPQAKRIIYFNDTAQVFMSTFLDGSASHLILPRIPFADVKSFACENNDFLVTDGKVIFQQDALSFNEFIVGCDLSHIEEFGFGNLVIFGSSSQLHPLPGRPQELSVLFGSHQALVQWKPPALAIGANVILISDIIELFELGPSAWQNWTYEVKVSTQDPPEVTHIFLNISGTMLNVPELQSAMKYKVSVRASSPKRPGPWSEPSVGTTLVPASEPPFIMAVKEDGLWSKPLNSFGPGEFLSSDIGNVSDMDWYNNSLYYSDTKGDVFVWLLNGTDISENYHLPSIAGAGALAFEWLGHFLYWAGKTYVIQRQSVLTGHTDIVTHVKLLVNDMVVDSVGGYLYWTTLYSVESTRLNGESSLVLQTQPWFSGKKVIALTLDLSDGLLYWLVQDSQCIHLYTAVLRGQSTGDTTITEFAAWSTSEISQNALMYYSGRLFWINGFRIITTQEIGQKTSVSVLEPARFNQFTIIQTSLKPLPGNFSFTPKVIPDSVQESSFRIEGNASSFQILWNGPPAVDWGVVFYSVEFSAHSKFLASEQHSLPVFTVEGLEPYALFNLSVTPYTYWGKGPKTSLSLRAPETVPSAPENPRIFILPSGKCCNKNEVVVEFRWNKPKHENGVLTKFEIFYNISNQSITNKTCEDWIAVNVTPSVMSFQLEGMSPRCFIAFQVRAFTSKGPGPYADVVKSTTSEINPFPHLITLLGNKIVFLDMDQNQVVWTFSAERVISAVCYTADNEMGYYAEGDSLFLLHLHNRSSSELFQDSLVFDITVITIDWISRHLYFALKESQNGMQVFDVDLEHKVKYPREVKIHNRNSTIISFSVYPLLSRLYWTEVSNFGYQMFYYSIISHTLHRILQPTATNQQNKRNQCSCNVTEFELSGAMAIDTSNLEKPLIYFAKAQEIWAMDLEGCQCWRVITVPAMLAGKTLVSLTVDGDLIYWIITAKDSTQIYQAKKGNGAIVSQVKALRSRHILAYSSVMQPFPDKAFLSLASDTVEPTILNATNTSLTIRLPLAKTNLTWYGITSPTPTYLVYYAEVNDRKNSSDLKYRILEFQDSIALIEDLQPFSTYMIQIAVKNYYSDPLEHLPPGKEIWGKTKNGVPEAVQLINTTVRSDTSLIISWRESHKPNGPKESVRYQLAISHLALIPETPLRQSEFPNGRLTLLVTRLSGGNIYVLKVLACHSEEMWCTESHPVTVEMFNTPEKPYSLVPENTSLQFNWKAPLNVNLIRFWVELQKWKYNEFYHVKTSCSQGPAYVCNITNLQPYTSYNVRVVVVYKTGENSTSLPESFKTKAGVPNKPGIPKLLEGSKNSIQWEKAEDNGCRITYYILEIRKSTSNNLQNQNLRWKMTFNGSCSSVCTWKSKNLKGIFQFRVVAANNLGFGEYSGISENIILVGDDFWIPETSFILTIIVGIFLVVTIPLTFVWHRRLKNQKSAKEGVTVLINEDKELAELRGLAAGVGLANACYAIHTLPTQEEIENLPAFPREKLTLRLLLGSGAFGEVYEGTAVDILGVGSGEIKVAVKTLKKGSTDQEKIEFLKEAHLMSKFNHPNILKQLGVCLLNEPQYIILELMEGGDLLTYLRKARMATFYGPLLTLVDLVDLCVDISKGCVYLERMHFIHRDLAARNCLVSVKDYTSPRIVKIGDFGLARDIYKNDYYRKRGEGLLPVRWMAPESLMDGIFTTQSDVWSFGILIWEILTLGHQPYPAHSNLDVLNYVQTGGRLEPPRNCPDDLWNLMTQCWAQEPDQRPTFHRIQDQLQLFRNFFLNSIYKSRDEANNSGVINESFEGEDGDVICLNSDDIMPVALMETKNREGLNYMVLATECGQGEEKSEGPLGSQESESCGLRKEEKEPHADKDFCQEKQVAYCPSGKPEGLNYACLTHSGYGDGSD
- protocol_details: Inhibition of human Ros kinase at 1 uM relative to control; values are per cent of control
reported_property: residual activity (%)
One number for each entry, in %.

{"columns": ["given_smiles", "unit_of_measurement", "result_value"],
 "data": [
  ["O=C1NC(=O)C2=C1c1cn(c3ccccc13)CCCc1ccc(c(N3CCCC3)n1)CCCn1cc2c2ccccc21", "%", 105],
  ["CN(C)c1nc2ccc1CCCn1cc(c3ccccc31)C1=C(C(=O)NC1=O)c1cn(c3ccccc13)CC2", "%", 79],
  ["O=C1NC(=O)C2=C1c1cn(c3ccccc13)CCCc1cc(nc(N3CCCC3)c1)CCCn1cc2c2ccccc21", "%", 117]
]}

Now for another entry.
What does the data say about its residual activity? Entry: `CN(C)c1cc2cc(n1)CCCn1cc(c3ccccc31)C1=C(C(=O)NC1=O)c1cn(c3ccccc13)CCC2`
108
